# run_description: Cytotoxicity against mouse RAW264.7 cells assessed as survival rate at 10 uM after 24 hrs by MTT assay
# Format: cell-based
# measurement_conditions: read-out: Activity
attribute_measured: viability at 24 h, 10 µM (%)
A number alone suffices; assume %.

Use the examples below as a reference point.
| cpd_smiles | unit_name | viability at 24 h, 10 µM |
| --- | --- | --- |
| O=C(Nc1ccc(F)cc1F)c1ccccc1O | % | 76.1 |
| O=c1oc2ccccc2c(=O)n1-c1ccc(I)cc1F | % | 91.4 |
| COc1ccc2c(=O)n(-c3ccc(F)cc3F)c(=O)oc2c1 | % | 90.9 |
| COc1ccc(C(=O)Nc2ccc(F)cc2F)c(O)c1 | % | 89.7 |
| COc1ccc2c(=O)n(-c3ccc(I)cc3F)c(=O)oc2c1 | % | 103 |

Record "O=C(Nc1ccc(I)cc1F)c1ccccc1OCc1ccc(F)cc1F" . Reported viability at 24 h, 10 µM: 85

Record "COc1ccc(C(=O)Nc2ccc(I)cc2F)c(OC)c1" . Reported viability at 24 h, 10 µM: 95

Record "O=c1oc2ccccc2c(=O)n1-c1ccc(F)cc1F" . Reported viability at 24 h, 10 µM: 88.8

Record "COc1ccc(C(=O)Nc2ccc(F)cc2F)c(OCc2ccc(F)cc2F)c1" . Reported viability at 24 h, 10 µM: 106

Record "COc1ccccc1C(=O)Nc1ccc(Cl)cc1F" . Reported viability at 24 h, 10 µM: 102

Record "COc1ccc(C(=O)Nc2ccc(-c3ccc(Cl)cc3F)cc2F)c(O)c1" . Reported viability at 24 h, 10 µM: 44.5

The reported numbers originate from ChEMBL document CHEMBL3351250.
